Hey, just so you know, these numbers are from patent US10392363B2.

- ASSAY DETAILS: Exposure in male Swiss outbred mice following IV administration
- Format: in vivo
- CONDITION INFO: male, Swiss outbred, mouse; IV 5 mg/kg, plasma; value marked b is an approximation; read-out: Apparent t1/2 (converted)
ENDPOINT LABEL: half-life (h)
Numbers only; they are read as h.

q: Specify reported half-life for the compound shown: N=C(N/N=C/c1ccc(Cl)cc1)N/N=C/c1ccc(Cl)cc1
a: 8.2

###

Listed here: items and their measured GI50 at 24 h.
- ASSAY DETAILS: Cell toxicity assay (WST-1)
- Format: cell-based, mouse
- CONDITION INFO: mouse, RAW 264.7 macrophages, RAW 264.7, 24 hours, read-out: GI50 macrophage
- Method: Cell toxicity assays. Mouse macrophages (RAW 264.7) were grown in RPM11640 media supplemented with L-glutamine and 10% foetal calf serum. Cells were trypsanised when 80% confluent and subcultured every 3-4 days. […] The metabolic activity of the cells was determined using the WST-1 assay system (Roche Life Science). The supernatant was removed, 100 μl of PBS with 10% WST-1 was added to each well and incubated for 1 hr before reading absorbance at 450 nm. […] IC50 was determined via graphpad prism software.
Numbers only; they are read as µM.

Please review the following examples before continuing.
>>> measurement("CN(C)c1ccc(/C=N/NC(=N)N/N=C/c2ccc(N(C)C)cc2)cc1.Cl")
12.9
>>> measurement("CC(C)(C)c1ccc(/C=N/NC(=N)N/N=C/c2ccc(C(C)(C)C)cc2)cc1.Cl")
7.66
>>> measurement("C/C(=N\\NC(=N)N/N=C(\\C)c1ccc(C(C)(C)C)cc1)c1ccc(C(C)(C)C)cc1.Cl")
19.3
>>> measurement("COc1ccccc1/C=N/NC(=N)N/N=C/c1ccccc1OC.Cl")
8.1
>>> measurement("Cc1ccc(/C=N/Nc2cc(N/N=C/c3ccc(C)cc3)nc(N)n2)cc1")
5.78

Now for the compound whose GI50 at 24 h we want.
q: Specify reported GI50 at 24 h for the compound shown: C/C(=N\NC(=N)N/N=C(\C)c1ccc(Cl)cc1)c1ccc(Cl)cc1.Cl
a: 7.15

###

- System: T. brucei procyclic stage
- ASSAY DETAILS: T. brucei screening (alamar blue)
- Assay type: cell-based, Trypanosoma brucei
- CONDITION INFO: 48 hours; listed as NCL 171
- Method: T. brucei screening. Procyclic promastigotes from exponentially growing cells maintained SDM-79 medium were used in all assays. Compounds were initially screened at 10 μM for activity. […] Cells were incubated for 48 hrs at 27° C. before the addition of alamar blue and fluorescence measurement as described above. […]
ENDPOINT LABEL: IC50 (nM)
Numbers only; they are read as nM.

q: Specify reported IC50 for the molecule shown: CN(C)c1ccc(C=NNC(=N)NN=Cc2ccc(N(C)C)cc2O)c(O)c1 [NCL171]
a: 1370

###

- ASSAY DETAILS: Exposure in male Swiss outbred mice following IV administration
- Type: in vivo
- CONDITION INFO: male, Swiss outbred, mouse, plasma; IV 5 mg/kg; values marked a, b are approximations; read-out: Plasma CL
ENDPOINT LABEL: clearance (mL/min/kg)
Numbers only; they are read as mL/min/kg.

q: Specify reported clearance for the molecule shown: N=C(N/N=C/c1ccc(Cl)cc1)N/N=C/c1ccc(Cl)cc1
a: 9.5

###

- ASSAY DETAILS: Exposure in male Swiss outbred mice following IV administration
- Assay type: in vivo
- CONDITION INFO: male, Swiss outbred, mouse, in vivo; IV 5 mg/kg; values marked a, b are approximations; read-out: AUC0-inf
ENDPOINT LABEL: AUC0-inf (µM·h)
Numbers only; they are read as µM·h.

q: Specify reported AUC0-inf for the compound shown: N=C(N/N=C/c1ccc(Cl)cc1)N/N=C/c1ccc(Cl)cc1 [NCL812]
a: 27.9

###

- ASSAY DETAILS: Exposure in male Swiss outbred mice following IV administration
- Assay type: in vivo
- CONDITION INFO: male, Swiss outbred, mouse, in vivo; IV 5 mg/kg; values marked a, b are approximations; read-out: Plasma Vss
ENDPOINT LABEL: Vd (L/kg)
Numbers only; they are read as L/kg.

q: Specify reported Vd for the compound shown: N=C(N/N=C/c1ccc(Cl)cc1)N/N=C/c1ccc(Cl)cc1 [NCL812]
a: 5.9

###

Listed here: items and their measured T. brucei SI.
- System: T. brucei procyclic stage
- ASSAY DETAILS: T. brucei screening (alamar blue)
- Format: cell-based, Trypanosoma brucei
- CONDITION INFO: GI50 of macrophages divided by IC50 of parasites

Please review the following examples before continuing.
>>> measurement("Cc1ccc(/C=N/Nc2cc(N/N=C/c3ccc(C)cc3)nc(N)n2)cc1")
3.79
>>> measurement("C/C(=N\\NC(=N)N/N=C(\\C)c1ccc(Cl)cc1)c1ccc(Cl)cc1.Cl")
1.75

Now for the compound whose T. brucei SI we want.
q: Specify reported T. brucei SI for the compound shown: N#Cc1cccc(C=NNC(=N)NN=Cc2cccc(C#N)c2)c1
a: 5.71

###

- ASSAY DETAILS: Cell toxicity assay (WST-1)
- Type: cell-based, mouse
- CONDITION INFO: mouse, RAW 264.7, 24 hours, read-out: GI50 macrophage
ENDPOINT LABEL: GI50 at 24 h (µM)
Numbers only; they are read as µM.

q: Specify reported GI50 at 24 h for the compound shown: N=C(N/N=C/c1ccc(Cl)cc1)N/N=C/c1ccc(Cl)cc1
a: 14.8
